Target: Protein deacetylase HDAC6 (Homo sapiens)
Sequence (whole entry): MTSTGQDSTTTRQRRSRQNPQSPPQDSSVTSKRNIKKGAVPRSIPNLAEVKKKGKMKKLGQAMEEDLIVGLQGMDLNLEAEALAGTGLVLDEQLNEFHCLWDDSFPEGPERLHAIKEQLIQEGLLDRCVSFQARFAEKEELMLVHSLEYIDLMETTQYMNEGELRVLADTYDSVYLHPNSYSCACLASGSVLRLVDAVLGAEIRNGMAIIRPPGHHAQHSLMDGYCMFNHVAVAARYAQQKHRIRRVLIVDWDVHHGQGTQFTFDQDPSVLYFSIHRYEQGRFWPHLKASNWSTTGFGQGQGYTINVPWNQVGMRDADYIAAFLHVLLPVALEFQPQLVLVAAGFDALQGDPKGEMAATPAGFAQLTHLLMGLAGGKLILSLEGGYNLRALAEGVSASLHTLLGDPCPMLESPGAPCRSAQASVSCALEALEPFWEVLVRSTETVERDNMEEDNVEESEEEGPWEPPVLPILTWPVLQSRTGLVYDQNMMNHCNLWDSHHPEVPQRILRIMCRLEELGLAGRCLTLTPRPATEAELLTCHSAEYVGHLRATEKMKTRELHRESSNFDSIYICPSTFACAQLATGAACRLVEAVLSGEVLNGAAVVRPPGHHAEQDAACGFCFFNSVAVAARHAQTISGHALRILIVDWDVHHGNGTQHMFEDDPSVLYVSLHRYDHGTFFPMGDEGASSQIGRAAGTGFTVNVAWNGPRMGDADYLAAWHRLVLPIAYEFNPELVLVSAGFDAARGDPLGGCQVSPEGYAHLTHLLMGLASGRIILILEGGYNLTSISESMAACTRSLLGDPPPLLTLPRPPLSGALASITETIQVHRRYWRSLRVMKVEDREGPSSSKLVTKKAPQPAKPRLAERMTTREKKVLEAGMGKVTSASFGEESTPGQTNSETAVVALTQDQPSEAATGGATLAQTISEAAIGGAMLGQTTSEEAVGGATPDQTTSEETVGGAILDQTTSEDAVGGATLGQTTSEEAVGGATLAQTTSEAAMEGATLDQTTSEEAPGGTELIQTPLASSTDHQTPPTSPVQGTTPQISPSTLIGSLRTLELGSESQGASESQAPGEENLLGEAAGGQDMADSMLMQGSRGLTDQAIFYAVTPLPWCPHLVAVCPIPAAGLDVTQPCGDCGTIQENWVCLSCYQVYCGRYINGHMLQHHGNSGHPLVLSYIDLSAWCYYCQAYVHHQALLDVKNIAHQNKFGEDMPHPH
Settings: at 10 µM
Screen size: about 5,600 compounds; about 150 (2.7%) showed an effect of 50% or more. The list comes from a sample in which strong results are over-represented; it also holds close analogues and randomly drawn compounds.
Readout type: inhibition
Number first, unit second.

Past entries and their recorded results:
CN1C(=O)C(N2CCCCC2)S/C1=C\C(=O)O (centres undefined)	0.03%
CC(C)C1=C2[C@H]3CC[C@@H]4[C@@]5(C)CC[C@H](OC(=O)CC(C)(C)C(=O)O)C(C)(C)[C@@H]5CC[C@@]4(C)[C@]3(C)CC[C@@]2([C@@H](O)CN(CCN(C)C)Cc2ccc(Cl)cc2)CC1=O	-0.39%
O=C(NN1C(=O)[C@@H]2[C@@H]3C=C[C@@H]([C@H]4C[C@@H]34)[C@@H]2C1=O)c1ccc(C(F)(F)F)cc1	3.03%

What measured inhibition is associated with Cn1c(/C=C/C(=O)NO)ccc1/C=C/C(=O)c1cccc(F)c1 on Protein deacetylase HDAC6 (Homo sapiens)? 76.3%

Give the reported inhibition for O=C(/C=C/c1cccc(F)c1)NC1CC1 (system: Protein deacetylase HDAC6 (Homo sapiens)). 8.47%

Tell me reported inhibition for CC(NC(=O)[C@@H](N)Cc1ccc(O)cc1)C(=O)NCC(=O)N(C)[C@@H](Cc1ccccc1)C(=O)N[C@H](CO)CC[S+](C)[O-] (stereo in doubt) , tested with Protein deacetylase HDAC6 (Homo sapiens). 2.35%

Can you look up inhibition on Protein deacetylase HDAC6 (Homo sapiens) for Cc1cccc(C)c1NC(=O)[C@H]1CCCCN1C ? 2.44%

// fetch Protein deacetylase HDAC6 (Homo sapiens) inhibition for CO/N=C(\C(=O)N[C@@H]1C(=O)N2C(C(=O)O)=C(C)CS[C@H]12)c1csc(N)n1 1.72%

Reported inhibition for Protein deacetylase HDAC6 (Homo sapiens), given CCc1nc2c(C)nc(C)cc2n1-c1ccc(CCNC(=O)NS(=O)(=O)c2ccc(C)cc2)cc1 ? -2.18%
